assay: Ratio of drug concentration in brain to plasma in female CD-1 mouse at 10 mg/kg, ip measured after 10 to 1440 mins by LC-MS/MS analysis; format: ADME, organism-based; conditions: brain and plasma, read-out: K(p,uu,brain)
VALUE_KIND: Kp uu

MOLECULE	OBS_VALUE
O=C(COc1ccc(N2C(=O)[C@@H]3[C@@H]4C=C[C@@H]([C@H]5C[C@@H]45)[C@@H]3C2=O)cc1)c1cc(Cl)cc(Cl)c1	2.49
COc1ccc(C(=O)C2CC2c2ccc(N3C(=O)[C@@H]4[C@@H]5C=C[C@@H]([C@H]6C[C@@H]56)[C@@H]4C3=O)cc2)cc1 (some centres undefined)	1.13
COc1ccc(C(=O)C2CC2c2ccc(N3C(=O)[C@@H]4[C@@H]5C=C[C@@H]([C@H]6C[C@@H]56)[C@@H]4C3=O)c(F)c2)cc1Cl (some centres undefined)	0.5
O=C(COc1cnc(N2C(=O)[C@@H]3[C@@H]4C=C[C@@H]([C@H]5C[C@@H]45)[C@@H]3C2=O)nc1)c1ccc(Cl)c(Cl)c1	0.29

====

assay: Drug concentration in female CD-1 mouse brain at 20 mg/kg, po measured at 30 mins by LC-MS/MS analysis; type: ADME, organism-based; settings: read-out: Ct

SMILES_DATA	ENDPOINT_UNIT	concentration at 0.5 h
O=C(COc1ccc(N2C(=O)[C@@H]3[C@@H]4C=C[C@@H]([C@H]5C[C@@H]45)[C@@H]3C2=O)cc1)c1cc(Cl)cc(Cl)c1	ng/g	1160

====

experiment: Cmax in female CD-1 mouse plasma at 10 mg/kg, ip measured after 10 to 1440 mins by LC-MS/MS analysis; type: ADME, organism-based
VALUE_KIND: Cmax (µg/mL)

COMPOUND	ENDPOINT_UNIT	OBS_VALUE
O=C(COc1ccc(N2C(=O)[C@@H]3[C@@H]4C=C[C@@H]([C@H]5C[C@@H]45)[C@@H]3C2=O)cc1)c1cc(Cl)cc(Cl)c1	µg/mL	1.3
COc1ccc(C(=O)C2CC2c2ccc(N3C(=O)[C@@H]4[C@@H]5C=C[C@@H]([C@H]6C[C@@H]56)[C@@H]4C3=O)c(F)c2)cc1Cl (some centres undefined)	µg/mL	1.97
COc1ccc(C(=O)C2CC2c2ccc(N3C(=O)[C@@H]4[C@@H]5C=C[C@@H]([C@H]6C[C@@H]56)[C@@H]4C3=O)cc2)cc1 (some centres undefined)	µg/mL	0.887
O=C(COc1cnc(N2C(=O)[C@@H]3[C@@H]4C=C[C@@H]([C@H]5C[C@@H]45)[C@@H]3C2=O)nc1)c1ccc(Cl)c(Cl)c1	µg/mL	3.44

====

test: Drug concentration in female CD-1 mouse plasma at 20 mg/kg, po measured at 30 mins by LC-MS/MS analysis; assay type: ADME, organism-based

SMILES_DATA	concentration at 0.5 h [ng/mL]
O=C(COc1ccc(N2C(=O)[C@@H]3[C@@H]4C=C[C@@H]([C@H]5C[C@@H]45)[C@@H]3C2=O)cc1)c1cc(Cl)cc(Cl)c1	1430

====

test: Drug concentration in female CD-1 mouse liver at 20 mg/kg, po measured at 30 mins by LC-MS/MS analysis; type: ADME, organism-based; conditions: read-out: Ct

SMILES_DATA	concentration at 0.5 h, ng/g
O=C(COc1ccc(N2C(=O)[C@@H]3[C@@H]4C=C[C@@H]([C@H]5C[C@@H]45)[C@@H]3C2=O)cc1)c1cc(Cl)cc(Cl)c1	11500

Data credit: ChEMBL document CHEMBL5506062
